- SYSTEM_UNDER_TEST: recombinant human caspase-3 (Homo sapiens)
- Sequence (P42574 29-175 limits assumed): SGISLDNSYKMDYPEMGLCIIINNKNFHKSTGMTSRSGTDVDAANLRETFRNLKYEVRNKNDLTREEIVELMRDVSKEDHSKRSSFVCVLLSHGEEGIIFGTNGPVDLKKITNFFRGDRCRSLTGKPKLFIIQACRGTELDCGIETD
- Sequence (P42574 176-277 limits assumed): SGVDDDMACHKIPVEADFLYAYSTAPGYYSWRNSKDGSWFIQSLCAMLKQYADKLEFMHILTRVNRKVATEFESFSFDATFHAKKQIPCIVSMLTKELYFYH
- PROTOCOL_TEXT: Cleavage of caspase-3 substrates by recombinant human caspase-3
- Format: biochemical
- CONDITIONS_USED: 10 μM or 50 μM substrate, 37° C.
QUANTITY_MEASURED: Cleavage by Caspase-3

// solved cases for Cleavage by Caspase-3 follow
COMPOUND	RESULT
CCOC(=O)Nc1ccc2c(c1)Oc1cc(NC(=O)[C@H](CC(=O)O)NC(=O)[C@@H](NC(=O)[C@H](CCC(=O)O)NC(=O)[C@H](CC(=O)O)NC(C)=O)C(C)C)ccc1C21OC(=O)c2ccccc21 (stereo partly drawn) [N-Ac-DEVD-N′-ethoxycarbonyl-R110]	Good
CCCCCCOC(=O)Nc1ccc2c(c1)Oc1cc(NC(=O)[C@H](CC(=O)O)NC(=O)[C@@H](NC(=O)[C@H](CCC(=O)O)NC(=O)[C@H](CC(=O)O)NC(C)=O)C(C)C)ccc1C21OC(=O)c2ccccc21 (stereo partly drawn) [N-Ac-DEVD-N′-hexyloxycarbonyl-R110]	Good
CCOC(=O)Nc1ccc2c(c1)Oc1cc(NC(=O)[C@H](CC(=O)O)NC(=O)[C@@H](NC(=O)[C@H](CCC(=O)O)NC(=O)[C@H](CC(=O)O)NC(=O)OCc3ccccc3)C(C)C)ccc1C21OC(=O)c2ccccc21 (stereo partly drawn) [N-Z-DEVD-N′-ethoxycarbonyl-R110]	Good
CCOC(=O)Nc1ccc2c(c1)Oc1cc(NC(=O)C(CC(=O)O)NC(=O)C(NC(=O)C(CCC(=O)O)NC(=O)OCc3ccccc3)C(C)C)ccc1C21OC(=O)c2ccccc21 (stereo not drawn) [N-Z-EVD-N′-ethoxycarbonyl-R110]	Fair
CCCCCCCCOC(=O)Nc1ccc2c(c1)Oc1cc(NC(=O)[C@H](CC(=O)O)NC(=O)[C@@H](NC(=O)[C@H](CCC(=O)O)NC(=O)[C@H](CC(=O)O)NC(C)=O)C(C)C)ccc1C21OC(=O)c2ccccc21 (stereo partly drawn) [N-Ac-DEVD-N′-octyloxycarbonyl-R110]	Good

Tell me the measured Cleavage by Caspase-3 of CCSC(=O)Nc1ccc2c(c1)Oc1cc(NC(=O)[C@H](CC(=O)O)NC(=O)[C@@H](NC(=O)[C@H](CCC(=O)O)NC(=O)[C@H](CC(=O)O)NC(C)=O)C(C)C)ccc1C21OC(=O)c2ccccc21 (stereo partly drawn) [N-Ac-DEVD-N′-(ethylthio)carbonyl-R110] , please.
Good
